Data origin: paper PMC5346982

Assay: Microsomal stability assay, human liver microsomes
Assay type: in vitro ADME
Conditions: human, microsomes, pH 7.4
Description: Reference compound Ketanserin Sample size Duplicates (n=2) Bioanalytical method LC-MS/MS Microsomal Liver Weight per Hepatic Species Protein Kilogram of Body Scaling Factora Blood Flow per Gram of Liver Weight (mL/min/kg) Test Article Species Percent Remaining (%) T1/2 Clint 1. Historic data of ketanserin: Detection method UPLC-MS/MS-29(API6500+) Internal standard (s) Osalmid, imipramine MS conditions Positive ion, ESI Mobile phase A: 0.025%FA/1mM NH4OAc/H2O 2. […]
quantity: remaining at 5 min, 1 µM (%)
Output spec: scalar in %, unitless text.

(Q) Reported remaining at 5 min, 1 µM for O=C(c1ccc(F)cc1)C1CCN(CCn2c(=O)[nH]c3ccccc3c2=O)CC1 : what is it?
(A) 88.4
